Data origin, for the record: ChEMBL document CHEMBL1143810

test system: Plasmodium falciparum; assay: Antiplasmodial activity against Plasmodium falciparum FcB1; format: functional, organism-based
pIC50: −log10 of the molar value.
Readout: pIC50

- Molecule: "CCOC(=O)COc1cc(-c2cc(=O)c3c(O)cc(OCC(=O)N4CCN(C(=O)OC(C)(C)C)CC4)cc3o2)ccc1OC"
  Target Under Test: "Plasmodium falciparum"
  Measurement: 5.74
- Molecule: "CCOC(=O)COc1cc(-c2cc(=O)c3c(O)cc(OCC(=O)N4CCN(Cc5ccc(OC)c(OC)c5OC)CC4)cc3o2)ccc1OC"
  Target Under Test: "Plasmodium falciparum"
  Measurement: 6.00
- Molecule: "CCOC(=O)COc1cc(-c2cc(=O)c3c(O)cc(OCC(=O)N4CCN(Cc5c(OC)cc(OC)cc5OC)CC4)cc3o2)ccc1OC"
  Target Under Test: "Plasmodium falciparum"
  Measurement: 5.72
- Molecule: "COc1ccc(CN2CCN(C(=O)COc3ccc4c(=O)cc(-c5cc(C(C)(C)C)c(O)c(C(C)(C)C)c5)oc4c3)CC2)c(OC)c1OC"
  Target Under Test: "Plasmodium falciparum"
  Measurement: 5.92
